target: CYP121 (Mycobacterium tuberculosis); assay: Native mass spectrometry of CYP121 with ligands; format: binding; conditions: Protein-Ligand Ratio 1:25
Sequence (P9WPP7 whole entry): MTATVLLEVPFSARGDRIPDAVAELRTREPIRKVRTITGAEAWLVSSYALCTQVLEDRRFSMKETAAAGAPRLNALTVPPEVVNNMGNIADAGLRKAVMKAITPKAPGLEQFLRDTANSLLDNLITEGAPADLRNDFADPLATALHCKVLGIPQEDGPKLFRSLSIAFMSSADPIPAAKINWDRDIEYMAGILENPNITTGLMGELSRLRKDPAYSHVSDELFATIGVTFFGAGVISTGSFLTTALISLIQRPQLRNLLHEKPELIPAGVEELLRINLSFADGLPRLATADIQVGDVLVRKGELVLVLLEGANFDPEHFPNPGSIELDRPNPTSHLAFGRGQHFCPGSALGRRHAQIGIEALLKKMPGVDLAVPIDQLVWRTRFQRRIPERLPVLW
reported metric: ligand binding stoichiometry, CYP121 Dimer

[
  {
    "molecule": "Oc1ccc(CNc2[nH]nc(-c3ccc(O)cc3)c2-c2ccc(O)cc2)cc1 [26a]",
    "reported value": 2
  },
  {
    "molecule": "Nc1cccc(-c2cccc(-c3c(-c4ccc(O)cc4)n[nH]c3N)c2)c1 [25a]",
    "reported value": 2
  },
  {
    "molecule": "Oc1ccc(Nc2cc(-c3ccc(O)cc3)n[nH]2)cc1 [compound 6]",
    "reported value": 1
  },
  {
    "molecule": "Nc1cccc(-c2cccc(-c3cn[nH]c3N)c2)c1 [19a]",
    "reported value": 2
  },
  {
    "molecule": "COc1ccc(-c2n[nH]c(N)c2-c2cccc(-c3cccc(N)c3)c2)cc1 [24a]",
    "reported value": 2
  }
]

Reference source for all entries: paper PMC4835159
